# Test Description: log P (Partition Ratio between Octanol/Water)
# Condition: cucurbitacins present in natural Picrorrhiza kurroa
Measured Quantity: log P

Some compounds with known log P results, for comparison:
[
  {
    "Structure Smiles": "CC(=O)OC(C)(C)/C=C/C(=O)[C@](C)(O)[C@H]1[C@H](O)C[C@@]2(C)[C@@H]3CC=C4[C@H](C[C@H](O)C(=O)C4(C)C)[C@]3(C)C(=O)C[C@]12C",
    "log P": "2.5 ± 0.6"
  },
  {
    "Structure Smiles": "CC(C)(O)/C=C/C(=O)[C@](C)(O)[C@H]1[C@H](O)C[C@@]2(C)[C@@H]3CC=C4[C@@H](C[C@H](O)[C@@H](O)C4(C)C)[C@]3(C)C(=O)C[C@]12C",
    "log P": "1.9 ± 0.6"
  },
  {
    "Structure Smiles": "CC(C)(O)/C=C/C(=O)[C@](C)(O)[C@H]1[C@H](O)C[C@@]2(C)[C@@H]3CC=C4[C@@H](C[C@H](O)C(=O)C4(C)C)[C@]3(C)C(=O)C[C@]12C",
    "log P": "1.7 ± 0.6"
  },
  {
    "Structure Smiles": "CC(C)(O)/C=C/C(=O)[C@](C)(O)[C@H]1[C@H](O)C[C@@]2(C)[C@@H]3CC=C4[C@@H](C=C(O)C(=O)C4(C)C)[C@]3(C)C(=O)C[C@]12C",
    "log P": "2.5 ± 0.5"
  },
  {
    "Structure Smiles": "CC(C)(O)CCC(=O)[C@](C)(O)[C@H]1[C@H](O)C[C@@]2(C)[C@@H]3CC=C4[C@@H](C[C@H](O)C(=O)C4(C)C)[C@]3(C)C(=O)C[C@]12C",
    "log P": "1.9 ± 0.6"
  }
]

log P for CC(=O)OC(C)(C)/C=C/C(=O)[C@](C)(O)[C@H]1[C@H](O)C[C@@]2(C)[C@@H]3CC=C4[C@@H](C=C(O)C(=O)C4(C)C)[C@]3(C)C(=O)C[C@]12C ?
3.4 ± 0.6
